For each of the molecules below, state its logD.
# Assay text: physchem
# Condition details: buffer, pH 7.4
Please give the numeric answer without any surrounding text.

Input: // returns reported logD for input COc1cc(CNc2cnc(Nc3ccc(N4CCC(N5CCN(C)CC5)CC4)c(OC)c3)nc2)cc(OC)c1
Output: 2.9

Input: // returns reported logD for input COc1cc(CCc2cnc(Nc3ccc(N4CCC(N5CCN(C)CC5)CC4)c(OC)c3)nc2)c(F)c(OC)c1
Output: 3.2

Input: // returns reported logD for input COc1cc(Nc2ncc(CCc3c(F)c(OC)cc(OC)c3Cl)cn2)ccc1N1CCC(N2CCN(C)CC2)CC1
Output: 3.5

Input: // returns reported logD for input COc1cc(OC)cc(C(=O)Nc2cnc(Nc3ccc(N4CCC(N5CCN(C)CC5)CC4)c(OC)c3)nc2Nc2ccccc2)c1
Output: 3.7

Input: // returns reported logD for input COc1cc(Nc2ncc(CCc3c(Cl)c(OC)cc(OC)c3Cl)cn2)ccc1N1CCC(N2CCN(C)CC2)CC1
Output: 4.4

Input: // returns reported logD for input COc1cc(CCc2cnc(Nc3ccc(N4CCC(N5CCN(C)CC5)CC4)c(OC)c3)nc2)cc(OC)c1
Output: 3.5

Input: // returns reported logD for input COc1cc(COc2cnc(Nc3ccc(N4CCC(N5CCN(C)CC5)CC4)c(OC)c3)nc2)cc(OC)c1
Output: 3.2

----------
# Assay text: physchem
# Condition details: buffer, pH 7.4
For each of the compounds below, state its logD.
Please give the numeric answer without any surrounding text.

Input: // returns reported logD for input COc1cc(OC)cc(C(=O)N(C)c2cnc(Nc3ccc(N4CCC(N5CCN(C)CC5)CC4)c(OC)c3)nc2)c1
Output: 1.8

Input: // returns reported logD for input COc1cc(OC)cc(C(=O)Nc2cnc(Nc3ccc(N4CCC(N5CCN(C)CC5)CC4)c(OC)c3)nc2)c1
Output: 2.8

Input: // returns reported logD for input COc1cc(OC)cc(OCc2cnc(Nc3ccc(N4CCC(N5CCN(C)CC5)CC4)c(OC)c3)nc2)c1
Output: 3.4

Input: // returns reported logD for input COc1cc(OC)cc(C(=O)Nc2cnc(Nc3ccc(N4CCC(N5CCN(C)CC5)CC4)c(OC)c3)nc2NCCS(C)(=O)=O)c1
Output: 1.8

----------
# Assay text: in vitro
# Condition details: PAMPA, pH 7.4
For each of the molecules below, state its Papp at 2 h.
Give just the numeric value; ×10⁻⁶ cm/s need not be written.

Input: // returns reported Papp at 2 h for input COc1cc(Nc2ncc(CCc3c(Cl)c(OC)cc(OC)c3Cl)cn2)ccc1N1CCC(N2CCN(C)CC2)CC1
Output: 18.7

Input: // returns reported Papp at 2 h for input COc1cc(Nc2ncc(CCc3c(F)c(OC)cc(OC)c3Cl)cn2)ccc1N1CCC(N2CCN(C)CC2)CC1
Output: 19.4

Input: // returns reported Papp at 2 h for input CCNS(=O)(=O)c1ccccc1Nc1nc(Nc2ccc(N3CCC(N4CCN(C)CC4)CC3)c(OC)c2)ncc1NC(=O)c1cc(OC)cc(OC)c1
Output: 1.4

Input: // returns reported Papp at 2 h for input COc1cc(OC)cc(C(=O)N(C)c2cnc(Nc3ccc(N4CCC(N5CCN(C)CC5)CC4)c(OC)c3)nc2)c1
Output: 3.7

Input: // returns reported Papp at 2 h for input COc1cc(CCc2cnc(Nc3ccc(N4CCC(N5CCN(C)CC5)CC4)c(OC)c3)nc2)c(F)c(OC)c1
Output: 24.4

Input: // returns reported Papp at 2 h for input CCNS(=O)(=O)c1ccccc1Nc1nc(Nc2ccc(N3CCC(N4CCN(C)CC4)CC3)c(OC)c2)ncc1CCc1cc(OC)cc(OC)c1
Output: 1.8

Input: // returns reported Papp at 2 h for input COc1cc(COc2cnc(Nc3ccc(N4CCC(N5CCN(C)CC5)CC4)c(OC)c3)nc2)cc(OC)c1
Output: 18.5
